- system-under-test: UniProt P27487
- Sequence (P27487 whole entry): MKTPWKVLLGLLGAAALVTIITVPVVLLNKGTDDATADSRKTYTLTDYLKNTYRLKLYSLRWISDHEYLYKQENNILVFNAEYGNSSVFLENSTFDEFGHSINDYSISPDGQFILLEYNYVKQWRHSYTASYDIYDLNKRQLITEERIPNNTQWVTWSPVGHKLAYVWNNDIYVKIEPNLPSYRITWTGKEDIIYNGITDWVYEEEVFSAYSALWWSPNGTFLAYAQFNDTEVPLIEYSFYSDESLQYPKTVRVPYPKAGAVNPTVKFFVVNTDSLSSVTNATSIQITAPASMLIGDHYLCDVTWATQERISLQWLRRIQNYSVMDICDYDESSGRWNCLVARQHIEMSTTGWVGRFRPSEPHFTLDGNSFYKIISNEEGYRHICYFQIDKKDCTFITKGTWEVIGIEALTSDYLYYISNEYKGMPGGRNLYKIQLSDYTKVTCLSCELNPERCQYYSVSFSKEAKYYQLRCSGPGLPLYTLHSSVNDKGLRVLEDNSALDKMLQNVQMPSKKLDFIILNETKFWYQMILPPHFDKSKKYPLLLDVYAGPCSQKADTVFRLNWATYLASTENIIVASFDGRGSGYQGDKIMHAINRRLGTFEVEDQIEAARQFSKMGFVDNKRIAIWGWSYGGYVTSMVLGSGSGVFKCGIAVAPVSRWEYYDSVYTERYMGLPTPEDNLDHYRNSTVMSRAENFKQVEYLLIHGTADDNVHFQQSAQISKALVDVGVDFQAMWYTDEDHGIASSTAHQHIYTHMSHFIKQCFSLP
- assay-info: DPP4 inhibition, fluorogenic substrate H-Gly-Pro-AMC
- Format: biochemical
- Parameters: purchased R&D Systems
- details: recombinant human DPP4
reported-metric: IC50 (µM)

// query IC50 value for entry COc1ccnc2ccc(NC3CCN(CC(=O)N4C[C@@H](F)C[C@H]4C#N)CC3)cc12 [Example 382] 3.15

(P) N#C[C@@H]1C[C@H](F)CN1C(=O)CN1CCC(Oc2cccc3cnccc23)CC1 [Example 421]
(Q) Cc1cc(OC2CCN(CC(=O)N3C[C@@H](F)C[C@H]3C#N)CC2)c2cc(F)ccc2n1 [Example 437]
Response body: label of entry with the larger IC50; valid values P , Q . Write the label of whichever entry you select. P

(a) Cc1ccc(N[C@H]2CCN(CC(=O)N3C[C@@H](F)C[C@H]3C#N)C2)c2cccnc12 [Example 262]
(b) Cc1ccc2ncc(N(C)C3CCN(CC(=O)N4C[C@@H](F)C[C@H]4C#N)CC3)cc2c1 [Example 326]
Response body: label of entry with the larger IC50; valid values a , b . Write the label of whichever entry you select. b

(A) N#C[C@@H]1CCCN1C(=O)CN1CC[C@H](Nc2ccc(C(=O)Nc3ccccn3)c3ncccc23)C1 [Example 293]
(B) N#C[C@@H]1C[C@H](F)CN1C(=O)CN1CCC(Nc2cccc3ncsc23)CC1 [Example 372]
(C) N#C[C@@H]1CCCN1C(=O)CN1CCC(Nc2ccc(C(=O)Nc3ccccc3)c3ncccc23)CC1 [Example 396]
(D) COc1cnc2cccc(N[C@@H]3CCN(CC(=O)N4C[C@@H](F)C[C@H]4C#N)C3)c2c1 [Example 205]
(E) COc1ccc2nccc(OC3CCN(CC(=O)N4CCC[C@H]4C#N)CC3)c2c1 [Example 426]
# sort list by recorded IC50, greatest to least The reply should contain the labels ordered as requested. E, C, A, B, D

(a) CCOc1ccc(N[C@H]2CCN(CC(=O)N3C[C@@H](F)C[C@H]3C#N)C2)c2cccnc12 [Example 275]
(b) N#C[C@@H]1C[C@H](F)CN1C(=O)CN1CC[C@@H](Nc2cccc3ncc(Cl)cc23)C1 [Example 185]
(c) N#C[C@@H]1C[C@H](F)CN1C(=O)CN1CCC(Oc2ccc(Cl)c3ncccc23)CC1 [Example 418]
I would appreciate it if you could sort these 3 molecules by IC50, starting from the smallest number. The reply should contain the labels ordered as requested. b, a, c
(b: 0.995 µM, a: 1.43 µM, c: 4.67 µM)

(a) N#C[C@@H]1C[C@H](F)CN1C(=O)CN1CC[C@@H](Nc2c(F)ccc3ncccc23)C1 [Example 173]
(b) N#Cc1ccc2c(N[C@H]3CCN(CC(=O)N4C[C@@H](F)C[C@H]4C#N)C3)cccc2n1 [Example 252]
Which value of IC50 is smaller, the one for a or the one for b ? Write the label of whichever entry you select. a

(A) N#C[C@@H]1C[C@H](F)CN1C(=O)CN1CC[C@H](Nc2ccc(F)c3ncccc23)C1 [Example 264]
(B) CN(c1ccc(OC(F)(F)F)c2ncccc12)[C@H]1CCN(CC(=O)N2C[C@@H](F)C[C@H]2C#N)C1 [Example 160]
(C) N#C[C@@H]1C[C@H](F)CN1C(=O)CN1CCC(Nc2cnc3ccc(F)cc3c2)CC1 [Example 364]
# sort list by recorded IC50, greatest to least The reply should contain the labels ordered as requested. C, B, A
(C: 9.13 µM, B: 1.78 µM, A: 1.04 µM)

----------
- system-under-test: recombinant human DPP7 (Homo sapiens)
- Construct: purchased R&D Systems
- assay-info: DPP7 inhibition, fluorogenic substrate Lys-Pro-AMC
- Assay type: biochemical
- details: recombinant human DPP7
pIC50: −log10 of the molar value.
reported-metric: pIC50

See these solved cases before continuing.
// query pIC50 value for entry N#C[C@@H]1C[C@H](F)CN1C(=O)CN1CC[C@@H](Nc2cc(C(F)(F)F)c3ncccc3c2)C1 6.40

// query pIC50 value for entry N#C[C@@H]1C[C@H](F)CN1C(=O)CN1CC[C@H](Nc2cccc3ncc(Cl)cc23)C1 5.75

// query pIC50 value for entry CNC(=O)c1ccc(N[C@H]2CCN(CC(=O)N3C[C@@H](F)C[C@H]3C#N)C2)c2cccnc12 5.95

// query pIC50 value for entry N#C[C@@H]1C[C@H](F)CN1C(=O)CN1CCC(Nc2ccc(C(=O)Nc3cccnc3)c3ncccc23)CC1 6.41

// query pIC50 value for entry N#C[C@@H]1C[C@H](F)CN1C(=O)CN1CCC(Nc2cncc3ccncc23)CC1 5.87

(I) COc1ccc2nc(C)cc(OC3CCN(CC(=O)N4C[C@@H](F)C[C@H]4C#N)CC3)c2c1
(II) N#C[C@@H]1C[C@H](F)CN1C(=O)CN1CCC(Nc2cccc3sccc23)CC1
(III) COc1ccc2nccc(O[C@H]3CCN(CC(=O)N4C[C@@H](F)C[C@H]4C#N)C3)c2c1
(IV) CCOc1ccc(NC2CCN(CC(=O)N3C[C@@H](F)C[C@H]3C#N)CC2)c2cccnc12
(V) N#C[C@@H]1C[C@H](F)CN1C(=O)CN1CC[C@@H](Nc2ccc(OC(F)(F)F)c3ncccc23)C1
I would appreciate it if you could sort these 5 compounds by pIC50, starting from the smallest number. The reply should contain the labels ordered as requested. III, I, V, II, IV

(I) N#C[C@@H]1C[C@H](F)CN1C(=O)CN1CCC(Nc2ccc(Cl)c3cnccc23)CC1
(II) Cc1ccc(N[C@@H]2CCN(CC(=O)N3CCC[C@H]3C#N)C2)c2cccnc12
Response body: label of entry with the larger pIC50; valid values I , II . Write the label of whichever entry you select. I
(I: 5.97, II: 5.77)

(P) COc1cc2c(NC3CCN(CC(=O)N4C[C@@H](F)C[C@H]4C#N)CC3)cccc2cn1
(Q) N#C[C@@H]1CCCN1C(=O)CN1CC[C@H](Nc2ccc3ncccc3c2)C1
Response body: label of entry with the larger pIC50; valid values P , Q . Write the label of whichever entry you select. P
(P: 6.07, Q: 5.87)

----------
- system-under-test: UniProt P27487
- assay-info: DPP4 inhibition, fluorogenic substrate H-Gly-Pro-AMC
- Type: biochemical
- Parameters: purchased R&D Systems
- details: 25° C., H-Gly-Pro-AMC substrate
IC50 overview

See these solved cases before continuing.
Recorded IC50 for COc1ccc2nccc(O[C@H]3CCN(CC(=O)N4CC(F)(F)C[C@H]4C#N)C3)c2c1 with UniProt P27487, please? > 1 µM

Recorded IC50 for N#C[C@@H]1CCCN1C(=O)CN1CC[C@H](Nc2cncc3ccoc23)C1 with UniProt P27487, please? > 1 µM

Recorded IC50 for N#C[C@@H]1CCCN1C(=O)CN1CC[C@H](Oc2cccc3[nH]c(=O)ccc23)C1 with UniProt P27487, please? > 1 µM

Recorded IC50 for N#C[C@@H]1CCCN1C(=O)CN1CC[C@H](NC(=O)c2csc3ccccc23)C1 with UniProt P27487, please? > 1 µM

Recorded IC50 for COc1ccc2nccc(O[C@H]3CCN(CC(=O)N4CCC[C@H]4C#N)C3)c2c1 with UniProt P27487, please? > 1 µM

Recorded IC50 for COc1cc2nccc(OC3CCN(CC(=O)N4C[C@@H](F)C[C@H]4C#N)CC3)c2cc1OC with UniProt P27487, please? > 10 µM

More entries:
Recorded IC50 for N#C[C@@H]1CC(F)(F)CN1C(=O)CN1CC[C@H](Oc2ccnc3cc(Cl)ccc23)C1 with UniProt P27487, please? > 1 µM

Recorded IC50 for N#C[C@@H]1CC(F)(F)CN1C(=O)CN1CC[C@H](Oc2ccnc3c(C(F)(F)F)cccc23)C1 with UniProt P27487, please? > 1 µM

Recorded IC50 for N#C[C@@H]1CC(F)(F)CN1C(=O)CN1CC[C@H](Oc2cccc3cnccc23)C1 with UniProt P27487, please? > 1 µM

Recorded IC50 for N#C[C@@H]1C[C@H](F)CN1C(=O)CN1CCC(Oc2ccnc3ccc(F)cc23)CC1 with UniProt P27487, please? 7.96 µM

Recorded IC50 for N#C[C@@H]1CCCN1C(=O)CN1CCC(Nc2cccc3ncccc23)CC1 with UniProt P27487, please? > 1 µM

Recorded IC50 for COc1ccc2c(O[C@H]3CCN(CC(=O)N4CCC[C@H]4C#N)C3)ccnc2c1 with UniProt P27487, please? > 1 µM

Recorded IC50 for N#C[C@@H]1CCCN1C(=O)CN1CC[C@H](Oc2cccc3cnccc23)C1 with UniProt P27487, please? > 1 µM

Recorded IC50 for N#C[C@@H]1C[C@H](F)CN1C(=O)CN1CC[C@H](NC(=O)c2coc3cc(F)ccc23)C1 with UniProt P27487, please? > 100 µM

Measured values drawn from patent US11655235B2 for this set.
